- System: German cockroach (female adults)
- assay_method_text: Test 3 (Effect on German Cockroach)
- Format: in vivo, Blatella germanica (German cockroach)
- measurement_context: Blattella germanica, 48 h
measure_name: mortality at 5 mg/m2 (%)

[[record]]
molecule = "CCOc1ccc(C(C)(C)CCCc2ccc(F)c(Oc3ccc(F)cc3)c2)cc1 [Compound 55]"
assay_value = 100

[[record]]
molecule = "CC(C)(CCCc1ccc(F)c(Oc2ccccc2)c1)c1ccccc1 [Compound 27]"
assay_value = 100

[[record]]
molecule = "CC(C)(CCCc1cccc(Oc2ccccc2)c1)c1ccc(OC(F)(F)CCl)cc1 [Compound 35]"
assay_value = 100

[[record]]
molecule = "CCOP(=S)(OCC)Oc1cc(C)nc(C(C)C)n1 [(c), Diazinon, reference compound]"
assay_value = 80


* * *

// reported mortality at 20 ppm per item
- Test system: common cutworm (third-instar larvae)
- assay_method_text: Test 1 (Effect on Common Cutworm)
- Type: in vivo
- measurement_context: Spodoptera litura; 20 ppm; 48 hours; third-instar larvae; read-out: Mortality (%)
measure_name: mortality at 20 ppm (%)

[[record]]
mol_smiles = "CC(C)(CCCc1cccc(Oc2ccccc2)c1)c1ccc(OCCF)cc1"
assay_value = 90

[[record]]
mol_smiles = "CCOc1ccc(C(C)(C)CCCc2ccc(F)c(Oc3ccccc3)c2)cc1Cl"
assay_value = 100

[[record]]
mol_smiles = "Cc1ccc(C(C)(C)CCCc2ccc(F)c(Oc3ccccc3)c2)cc1"
assay_value = 100

[[record]]
mol_smiles = "Cc1ccc(C(C)(C)CCCc2cccc(Oc3ccccc3)c2)cc1"
assay_value = 100

[[record]]
mol_smiles = "CCOc1ccc(C(C)(C)CCCc2ccc(F)c(Oc3ccccc3)c2)cc1"
assay_value = 100

[[record]]
mol_smiles = "CC(C)(CCCc1cccc(Oc2ccccc2)c1)c1ccc(Oc2ccccc2)cc1"
assay_value = 85

[[record]]
mol_smiles = "CC(C)(CCCc1cccc(Oc2ccccc2)c1)c1ccc(OC(F)F)cc1"
assay_value = 100


* * *

- Tested on: yearling carps
- assay_method_text: Test 5 (Fish Toxicity)
- Type: in vivo, carp
- measurement_context: 0.1 ppm in water
// reported Mortality(%) 48 Hours After per item
measure_name: Mortality(%) 48 Hours After

[[record]]
mol_smiles = "COc1ccc(C(C)(C)CCCc2ccc(F)c(Oc3ccccc3)c2)cc1"
system_name = "yearling carps"
output_unit = "%"
assay_value = 0

[[record]]
mol_smiles = "CCOc1ccc(C2(CCCc3ccc(F)c(Oc4ccccc4)c3)CCC2)cc1"
system_name = "yearling carps"
output_unit = "%"
assay_value = 0

[[record]]
mol_smiles = "Cc1ccc(C(C)(C)CCCc2cccc(Oc3ccccc3)c2)cc1"
system_name = "yearling carps"
output_unit = "%"
assay_value = 0

[[record]]
mol_smiles = "CCOc1ccc(C(C)(C)CCCc2ccc(F)c(Oc3ccc(F)cc3)c2)cc1Cl"
system_name = "yearling carps"
output_unit = "%"
assay_value = 0

[[record]]
mol_smiles = "CCOc1ccc(C(C)(C)CCCc2cccc(Oc3ccc(F)cc3)c2)cc1"
system_name = "yearling carps"
output_unit = "%"
assay_value = 0


* * *

// reported mortality at 20 ppm per item
- Tested on: common cutworm (third-instar larvae)
- assay_method_text: Test 1 (Effect on Common Cutworm)
- Type: in vivo
- measurement_context: Spodoptera litura; 20 ppm; 48 hours; third-instar larvae; read-out: Mortality (%)
measure_name: mortality at 20 ppm (%)

[[record]]
mol_smiles = "CC(C)(CCCc1cccc(Oc2ccccc2)c1)c1ccc(OC(F)=CCl)cc1"
system_name = "common cutworm (third-instar larvae)"
output_unit = "%"
assay_value = 80

[[record]]
mol_smiles = "CC(C)(C)c1ccc(C(C)(C)CCCc2ccc(F)c(Oc3ccccc3)c2)cc1"
system_name = "common cutworm (third-instar larvae)"
output_unit = "%"
assay_value = 40

[[record]]
mol_smiles = "CC(C)(CCCc1cccc(Oc2ccccc2)c1)c1ccc(C#N)cc1"
system_name = "common cutworm (third-instar larvae)"
output_unit = "%"
assay_value = 80

[[record]]
mol_smiles = "CCc1ccc(C(C)(C)CCCc2ccc(F)c(Oc3ccccc3)c2)cc1"
system_name = "common cutworm (third-instar larvae)"
output_unit = "%"
assay_value = 100

[[record]]
mol_smiles = "CC(C)(CCCc1cccc(Oc2ccccc2)c1)c1ccc(OC(F)(F)C(F)F)cc1"
system_name = "common cutworm (third-instar larvae)"
output_unit = "%"
assay_value = 100


* * *

- Test system: green rice leafhopper (female adults)
- assay_method_text: Test 2 (Effect on Green Rice Leafhopper)
- Format: in vivo
- measurement_context: Nephotettix cincticeps; 20 ppm; 48 hours; female adults; read-out: Mortality (%)
// reported mortality at 20 ppm per item
measure_name: mortality at 20 ppm (%)

[[record]]
compound = "COc1ccc(C(C)(C)CCCc2ccc(F)c(Oc3ccccc3)c2)cc1"
measure_name = "mortality at 20 ppm"
assay_value = 100

[[record]]
compound = "CC(C)(CCCc1cccc(Oc2ccccc2)c1)c1ccc(OCCF)cc1"
measure_name = "mortality at 20 ppm"
assay_value = 100

[[record]]
compound = "CC(C)(CCC(C#N)c1ccc(F)c(Oc2ccccc2)c1)c1ccc(Cl)cc1 (stereo not drawn)"
measure_name = "mortality at 20 ppm"
assay_value = 45

[[record]]
compound = "CCc1ccc(C(C)(C)CCCc2ccc(F)c(Oc3ccccc3)c2)cc1"
measure_name = "mortality at 20 ppm"
assay_value = 100

[[record]]
compound = "Clc1ccc(C2(CCCc3cccc(Oc4ccccc4)c3)CC2(Cl)Cl)cc1 (stereo not drawn)"
measure_name = "mortality at 20 ppm"
assay_value = 50

[[record]]
compound = "CC(C)(CCCc1cccc(Oc2ccccc2)c1)c1ccc(C(=O)OCCF)cc1"
measure_name = "mortality at 20 ppm"
assay_value = 40

[[record]]
compound = "CC(C)(CCCc1ccc(F)c(Oc2ccc(F)cc2)c1)c1ccc(Cl)cc1"
measure_name = "mortality at 20 ppm"
assay_value = 100

[[record]]
compound = "CC(C)(CCCc1cccc(Oc2ccccc2)c1)c1ccc(C#N)cc1"
measure_name = "mortality at 20 ppm"
assay_value = 100

[[record]]
compound = "CC(C)(CCCc1ccc(F)c(Oc2ccccc2)c1)c1ccc(OC(F)F)cc1"
measure_name = "mortality at 20 ppm"
assay_value = 100

[[record]]
compound = "CCOc1ccc(C2(CCCc3ccc(F)c(Oc4ccccc4)c3)CCC2)cc1"
measure_name = "mortality at 20 ppm"
assay_value = 100

[[record]]
compound = "CCC(CCCc1cccc(Oc2ccccc2)c1)c1ccc(Cl)cc1 (stereo not drawn)"
measure_name = "mortality at 20 ppm"
assay_value = 75

[[record]]
compound = "CCOc1ccc(C(C)(C)CCC(C#N)c2cccc(Oc3ccccc3)c2)cc1 (stereo not drawn)"
measure_name = "mortality at 20 ppm"
assay_value = 70

[[record]]
compound = "CCOc1ccc(C(C)(C)CCCc2cccc(C(=O)c3ccccc3)c2)cc1"
measure_name = "mortality at 20 ppm"
assay_value = 50

[[record]]
compound = "CCOc1ccc(C(C)(C)CCCc2cccc(Oc3ccc(F)cc3)n2)cc1"
measure_name = "mortality at 20 ppm"
assay_value = 60

[[record]]
compound = "CC(C)(CCCc1cccc(Oc2ccccc2)c1)c1ccc(Cl)c(Cl)c1"
measure_name = "mortality at 20 ppm"
assay_value = 50

[[record]]
compound = "CC(C)(CCCc1cccc(Oc2ccccc2)c1)c1ccc(C=C(Cl)Cl)cc1"
measure_name = "mortality at 20 ppm"
assay_value = 100

[[record]]
compound = "CC(C)C(C)(CCCc1cccc(Oc2ccccc2)c1)c1ccc(Cl)cc1 (stereo not drawn)"
measure_name = "mortality at 20 ppm"
assay_value = 60

[[record]]
compound = "CCOc1ccc(C(C)(C)CCCc2cccc(Cc3ccccc3)c2)cc1"
measure_name = "mortality at 20 ppm"
assay_value = 50

[[record]]
compound = "COCc1ccc(C(C)(C)CCCc2cccc(Oc3ccccc3)c2)cc1"
measure_name = "mortality at 20 ppm"
assay_value = 100

[[record]]
compound = "CC(C)(CCCc1cccc(Oc2ccccc2)c1)c1ccc(Cl)cc1"
measure_name = "mortality at 20 ppm"
assay_value = 100

[[record]]
compound = "CCOc1ccc(C(C)(C)CCCc2cccc(Sc3ccccc3)c2)cc1"
measure_name = "mortality at 20 ppm"
assay_value = 70

[[record]]
compound = "COc1ccc(C(C)(C)CCCc2cccc(Oc3ccccc3)c2)cc1OC"
measure_name = "mortality at 20 ppm"
assay_value = 50

[[record]]
compound = "CCOc1ccc(C(C)(C)CCCc2ccc(F)c(Oc3ccccc3)c2)cc1Cl"
measure_name = "mortality at 20 ppm"
assay_value = 100

[[record]]
compound = "CCOc1ccc(C(C)(C)CCCc2cccc(Oc3ccc(F)cc3)c2)cc1"
measure_name = "mortality at 20 ppm"
assay_value = 100

[[record]]
compound = "CCOc1ccc(C(C)(C)CCCc2cccc(Oc3ccc(Cl)cc3)c2)cc1"
measure_name = "mortality at 20 ppm"
assay_value = 90

[[record]]
compound = "CCOc1ccc(C(C)(C)CCCc2cccc(Oc3ccccc3F)c2)cc1"
measure_name = "mortality at 20 ppm"
assay_value = 100

[[record]]
compound = "CC(C)(CCCc1cccc(Oc2ccccc2)c1)c1ccc2ccccc2c1"
measure_name = "mortality at 20 ppm"
assay_value = 100

[[record]]
compound = "CC(C)(CCC(C#N)c1cccc(Oc2ccccc2)c1)c1ccc(Cl)cc1 (stereo not drawn)"
measure_name = "mortality at 20 ppm"
assay_value = 50

[[record]]
compound = "CC(C)(CCCc1cccc(Oc2ccccc2)c1)c1cccc(Cl)c1"
measure_name = "mortality at 20 ppm"
assay_value = 100

[[record]]
compound = "CC(C)(CCCc1cccc(Oc2ccccc2)c1)c1ccc(OC(F)(F)C(F)F)cc1"
measure_name = "mortality at 20 ppm"
assay_value = 100

[[record]]
compound = "CC(C)(CCCc1cccc(Oc2ccccc2)c1)c1ccc(C(=O)OC(F)(F)C(F)F)cc1"
measure_name = "mortality at 20 ppm"
assay_value = 75

[[record]]
compound = "CC(C)c1ccc(C(C)(C)CCCc2ccc(F)c(Oc3ccccc3)c2)cc1"
measure_name = "mortality at 20 ppm"
assay_value = 100

[[record]]
compound = "CC(C)(CCCc1ccc(F)c(Oc2ccccc2)c1)c1ccc(Cl)cc1"
measure_name = "mortality at 20 ppm"
assay_value = 100

[[record]]
compound = "CC(C)=Cc1ccc(C(C)(C)CCCc2cccc(Oc3ccccc3)c2)cc1"
measure_name = "mortality at 20 ppm"
assay_value = 70

[[record]]
compound = "CC(C)(CCCc1cccc(Oc2ccccc2)c1)c1ccc(OC(F)(F)C(Cl)Cl)cc1"
measure_name = "mortality at 20 ppm"
assay_value = 90

[[record]]
compound = "CCOc1ccc(C(C)(C)CCCc2ccc(F)c(Oc3ccc(F)cc3)c2)cc1Cl"
measure_name = "mortality at 20 ppm"
assay_value = 100

